meta.source: patent US20230089867A1

Assayed Target: human PCSK9 (Homo sapiens, UniProt Q8NBP7)
Sequence (Q8NBP7 153-692): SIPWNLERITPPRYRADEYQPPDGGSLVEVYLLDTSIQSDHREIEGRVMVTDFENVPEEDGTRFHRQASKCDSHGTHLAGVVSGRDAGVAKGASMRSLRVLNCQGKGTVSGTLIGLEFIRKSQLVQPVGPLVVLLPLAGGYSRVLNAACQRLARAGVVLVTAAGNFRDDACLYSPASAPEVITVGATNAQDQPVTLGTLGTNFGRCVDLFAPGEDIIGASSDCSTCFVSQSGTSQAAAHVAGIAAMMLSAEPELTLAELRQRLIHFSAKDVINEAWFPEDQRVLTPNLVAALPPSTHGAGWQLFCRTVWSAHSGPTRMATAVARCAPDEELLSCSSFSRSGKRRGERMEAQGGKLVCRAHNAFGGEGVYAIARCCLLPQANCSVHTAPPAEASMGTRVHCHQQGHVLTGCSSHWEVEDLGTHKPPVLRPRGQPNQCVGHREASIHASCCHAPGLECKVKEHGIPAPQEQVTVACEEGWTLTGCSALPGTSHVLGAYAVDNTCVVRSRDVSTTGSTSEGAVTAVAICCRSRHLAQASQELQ
Sequence (Q8NBP7 31-152 partner limits assumed): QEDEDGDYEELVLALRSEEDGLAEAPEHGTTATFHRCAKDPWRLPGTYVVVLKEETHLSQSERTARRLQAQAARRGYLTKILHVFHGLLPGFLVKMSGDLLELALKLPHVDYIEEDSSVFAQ
Measurement Notes: PCSK9 ligand binding TR-FRET assay (interference with binding of human PCSK9 to human LDLR)
Experimental Setup: TR-FRET; human PCSK9 Alexa Fluor 647 / human LDLR extracellular domain-Europium Kryptate; read-out: PCSK9 FRET Assay IC50
pIC50: −log10 of the molar value.
Assay Metric: pIC50

>  <Smiles Data>
COCC[C@H]1C(=O)N[C@@H](COC)C(=O)N(C)[C@@H](Cc2ccc(Cl)cc2)CC(=O)NC[C@H](C)N(C)C(=O)[C@H](Cc2ccccc2)CC(=O)N1Cc1ccc(Cl)cc1Oc1ccc(-c2cnc(CN(C)C)n2C)cc1

>  <Assay Metric>
pIC50

>  <Measured>
8.43

$$$$

P. COC[C@@H]1NC(=O)[C@H](C)N(Cc2ccc(Cl)cc2Oc2ccc(-c3cnc(CN(C)C)n3C)cc2)C(=O)C[C@@H](Cc2cccc(OC(F)F)c2)C(=O)N(C)[C@@H](C)CNC(=O)C[C@H](Cc2ccc(Cl)cc2)N(C)C1=O
Q. COC[C@@H]1NC(=O)[C@H](C)N(Cc2ccc(C)cc2Oc2ccc(-c3cnc(CN(C)C)n3C)cc2)C(=O)C[C@@H](Cc2ccccc2)C(=O)N(C)[C@@H](C)[C@H](C)NC(=O)C[C@H](Cc2ccc(Cl)cc2)N(C)C1=O
R. COC[C@@H]1NC(=O)[C@H](C)N(Cc2ccc(Cl)cc2Oc2ccc(-c3cnc(CN4CCCC4)n3C)cc2)C(=O)C[C@@H](Cc2cccc(OC(F)(F)F)c2)C(=O)N(C)[C@@H](C)CNC(=O)C[C@H](Cc2ccc(Cl)cc2)N(C)C1=O
input: List these items ordered by pIC50, big to small. Present the labels in the sequence the task asks for.
output: Q, P, R

###

Assayed Target: human PCSK9 (Homo sapiens, UniProt Q8NBP7)
Measurement Notes: PCSK9 ligand binding TR-FRET assay (interference with binding of human PCSK9 to human LDLR)
Experimental Setup: PCSK9 FRET assay, efficacy (Amax); 100% = 1 uM unlabeled human PCSK9, 0% = DMSO
Assay Metric: Max % inhibition (%)

As a guide, the following entries are already answered.
>  <Compound>
C=CC[C@@H]1CC(=O)N(Cc2ccc(Cl)cc2Oc2ccc(-c3cnc(CN(C)C)n3C)cc2)[C@@H](C)C(=O)N[C@@H](COC)C(=O)N(C)[C@@H](Cc2ccc(Cl)cc2)CC(=O)N[C@@H](C)[C@H](C)N(C)C1=O

>  <Measured>
100.92

$$$$
>  <Compound>
COC[C@@H]1NC(=O)[C@H](C)N(Cc2ccc(Cl)cc2Oc2ccc(-c3cnc(CN(C)C)n3C)cc2)C(=O)C[C@@H](Cc2ccccc2)C(=O)N(C)[C@@H](C(=O)O)CNC(=O)C[C@H](Cc2ccc(Cl)cc2)N(C)C1=O

>  <Measured>
107.53

$$$$
>  <Compound>
COC[C@@H]1NC(=O)[C@H](C)N(Cc2ccc(Cl)cc2Oc2ccc(-n3cnc(CN(C)C)c3C)cc2)C(=O)C[C@@H](Cc2ccccc2)C(=O)N(C)[C@H]2CCCC[C@@H]2NC(=O)C[C@H](Cc2ccc(Cl)cc2)N(C)C1=O

>  <Measured>
113.30

$$$$
>  <Compound>
COC[C@@H]1NC(=O)[C@H](C)N(Cc2ccc(Cl)cc2Oc2ccc(-c3cnc(CN(C)C)n3C)cc2)C(=O)C[C@@H](Cc2ccccc2)C(=O)N(C)C2CCOCC2NC(=O)CC(Cc2ccc(Cl)cc2)N(C)C1=O (stereo partly shown)

>  <Measured>
99.31

$$$$

I. COC[C@@H]1NC(=O)[C@H](CCCN2CCOCC2)N(Cc2ccc(Cl)cc2Oc2ccc(-c3cnc(CN(C)C)n3C)cc2)C(=O)C[C@@H](Cc2ccccc2)C(=O)N(C)[C@H]2CCCC[C@@H]2NC(=O)C[C@H](Cc2ccc(Cl)cc2)N(C)C1=O
II. COC[C@@H]1NC(=O)[C@H](C)N(Cc2ccc(Cl)cc2Oc2ccc(-c3cnc(CN(C)C)n3C)cc2)C(=O)C[C@@H](C)C(=O)N(C)[C@@H](CC(C)C)CNC(=O)C[C@H](Cc2ccc(Cl)cc2)N(C)C1=O
input: Out of I and II , name the one with the higher Max % inhibition. Could you answer with the label of the item you picked?
output: I
(I: 98.30%, II: 64.95%)

###

Assayed Target: human PCSK9 (Homo sapiens)
Measurement Notes: PCSK9 ligand binding TR-FRET assay (interference with binding of human PCSK9 to human LDLR)
Experimental Setup: TR-FRET; human PCSK9 Alexa Fluor 647 / human LDLR extracellular domain-Europium Kryptate; read-out: PCSK9 FRET Assay IC50
Assay Metric: IC50 (nM)

A. COC[C@@H]1NC(=O)[C@H](C)N(Cc2c(Cl)cccc2Oc2ccc(-c3cnc(CN(C)C)n3C)cc2)C(=O)C[C@@H](C)C(=O)N(C)[C@@H](C)CNC(=O)C[C@H](Cc2ccc(Cl)cc2)N(C)C1=O [Compound 230]
B. CC[C@H]1C(=O)N[C@@H](COC)C(=O)N(C)[C@@H](Cc2ccc(Cl)cc2)CC(=O)NC[C@H](C)N(C)C(=O)[C@H](Cc2ccccc2)CC(=O)N1Cc1ccc(Cl)cc1Oc1ccc(-c2cnc(CN(C)C)n2C)cc1 [Compound 70]
input: Select one: A or B . Criterion: greater recorded IC50. Output the label that corresponds to your choice.
output: A

###

Assayed Target: human PCSK9 (Homo sapiens)
Measurement Notes: PCSK9 ligand binding TR-FRET assay (interference with binding of human PCSK9 to human LDLR)
Experimental Setup: TR-FRET; human PCSK9 Alexa Fluor 647 / human LDLR extracellular domain-Europium Kryptate; read-out: PCSK9 FRET Assay IC50
Assay Metric: IC50 (nM)

a. COC[C@@H]1NC(=O)[C@H](C)N(Cc2ccc(Cl)cc2Oc2ccc(-c3cnc(CN(C)C)n3C)cc2)C(=O)C[C@@H](Cc2ccccc2)C(=O)N(C)[C@@H](C(=O)O)CNC(=O)C[C@H](Cc2ccc(Cl)cc2)N(C)C1=O [Compound 177]
b. COC[C@@H]1NC(=O)[C@H](C)N(Cc2ccc(Cl)cc2Oc2ccc(-c3cnc4n3CCN(C(=O)[C@H]3CCOC3)C4)cc2)C(=O)C[C@@H](Cc2ccccc2)C(=O)N(C)[C@@H](C)CNC(=O)C[C@H](Cc2ccc(Cl)cc2)N(C)C1=O [Compound 162]
input: For the two items a and b , which reports the higher IC50 value? Refer to your chosen entry by its label in the reply.
output: a
(a: 9.8 nM, b: 2.9 nM)

1. COC[C@@H]1NC(=O)[C@H](C)N(Cc2ccc(Cl)cc2Oc2ccc(-c3cnc(CN(C)C)n3C)cc2)C(=O)C[C@@H](CC(F)=C(F)F)C(=O)N(C)[C@H]2CCCC[C@@H]2NC(=O)C[C@H](Cc2ccc(Cl)cc2)N(C)C1=O [Compound 96]
2. COC[C@@H]1NC(=O)[C@H](C)N(Cc2ccc(Cl)cc2Oc2ccc(-c3cnc(CN(C)C)n3C)cc2)C(=O)CC(Cn2ccccc2=O)C(=O)N(C)[C@H]2CCCC[C@@H]2NC(=O)C[C@H](Cc2ccc(Cl)cc2)N(C)C1=O (stereo partly shown) [Compound 276]
3. COC[C@@H]1NC(=O)[C@H](CCCN)N(Cc2ccc(Cl)cc2Oc2ccc(-c3cnc(CN(C)C)n3C)cc2)C(=O)C[C@@H](Cc2ccccc2)C(=O)N(C)[C@H]2CCCC[C@@H]2NC(=O)C[C@H](Cc2ccc(Cl)cc2)N(C)C1=O [Compound 304]
4. COC[C@@H]1NC(=O)[C@H](C)N(Cc2ccc(Cl)cc2Oc2ccc(-c3cnc(CN(C)C)n3C)cc2)C(=O)C[C@@H](Cc2ccccn2)C(=O)N(C)[C@H]2CCCC[C@@H]2NC(=O)C[C@H](Cc2ccc(Cl)cc2)N(C)C1=O [Compound 284]
input: # sort list by recorded IC50, greatest to least Your answer should be the labels, listed in the requested order.
output: 1, 2, 4, 3
(1: 304 nM, 2: 16.4 nM, 4: 0.9 nM, 3: 0.6 nM)

a. COC[C@@H]1NC(=O)[C@H](C)N(Cc2ccc(Cl)cc2Oc2ccc(-c3cnc(CN4CCCC4)n3C)cc2)C(=O)C[C@@H](Cc2ccccc2)C(=O)N(C)[C@@H](C)CNC(=O)C[C@H](Cc2ccc(Cl)cc2)NC1=O [Compound 256]
b. COC[C@@H]1NC(=O)[C@H](C)N(Cc2ccc(Cl)cc2Oc2ccc(-c3cnc(CN4CCC4)n3C)cc2)C(=O)C[C@@H](Cc2ccccc2)C(=O)N(C)[C@H]2CCCC[C@@H]2NC(=O)C[C@H](Cc2ccc(Cl)cc2)N(C)C1=O [Compound 16]
c. COC[C@@H]1NC(=O)[C@H](C)N(Cc2c(Oc3ccc(-c4cnc(CN(C)C)n4C)cc3)cccc2OC(F)F)C(=O)C[C@@H](C)C(=O)N(C)[C@@H](C)CNC(=O)C[C@H](Cc2ccc(Cl)cc2)N(C)C1=O [Compound 62]
input: Rank the items in ascending order with respect to IC50. Show the ranking through the labels, in the order asked for.
output: b, c, a
